So I've got a bunch of compounds here, and I need their TGI values.
System: KM12 colon
protocol-text: NCI tumour cell line growth inhibition, 48 h

{"columns": ["compound", "TGI"],
 "data": [
  ["N#CC1C(=O)C(=O)N(c2ccccc2)C1=O (stereo unspecified)", "> 100 µM"]
]}

Quick batch: TGI for everything below.
1. COC(=O)C1=C(C(=O)OC)SC(=C(Cl)C(=S)Oc2ccccc2N)S1
2. Nc1ccccc1NC(=O)c1ccc(CNC(=O)OCc2cccnc2)cc1
3. O=C1OC(c2ccccc2)=N/C1=C\c1ccc(Br)cc1
4. CC1(C)Cc2c(c3ccccc3c3nc4c(nc23)c2c(c3ccccc34)OC(C)(C)C2)O1
5. O=C1C(Cl)C(c2cc(Br)ccc2O)N1n1cnc2ccccc2c1=O (stereo unspecified)

# output
1. > 50 µM
2. > 100 µM
3. > 100 µM
4. > 100 µM
5. > 100 µM

----------
I'd be grateful if you could share measured TGI for these entries.
Tested on: CAKI-1 renal
protocol-text: NCI tumour cell line growth inhibition, 48 h

Below, each entry is followed by its recorded TGI result.
{"columns": ["compound", "assayed-target", "TGI"],
 "data": [
  ["COc1ccc(/C=C/C(=O)c2ccc(Cl)cc2Cl)cc1", "CAKI-1 renal", "50.1 µM"],
  ["CCn1c(=O)nc2n(-c3ccccc3)c3ccccc3nc-2c1=O", "CAKI-1 renal", "> 100 µM"],
  ["C[C@@H](c1ccccc1)C(CC#N)[C@H]1CCC[C@]1(O)C#Cc1ccc2c(c1)OCO2 (stereo not given in full)", "CAKI-1 renal", "30.8 µM"],
  ["COc1ccc(C2=C(c3cn(C)c4ccccc34)C(=O)OC2)cc1OC", "CAKI-1 renal", "> 100 µM"],
  ["Fc1cccc(F)c1C1SCc2nc3cc4ccccc4cc3n21 (stereo not given)", "CAKI-1 renal", "> 100 µM"],
  ["Cn1c(=O)nc2n(-c3cc(Cl)ccc3Cl)c3ccccc3nc-2c1=O", "CAKI-1 renal", "27.8 µM"],
  ["NC(=S)Nc1[nH]c(=S)nc2[nH]ccc12", "CAKI-1 renal", "> 100 µM"],
  ["O=C(c1cccc(F)c1F)N1CCc2c([nH]c3ccccc23)C1c1ccc2c(c1)OCO2 (stereo not given)", "CAKI-1 renal", "87.2 µM"]
]}

Hey, can you go through the list below and give me TGI for every item?
1. CN(C)c1ccc(/C=C(\NC(=O)c2ccccc2)C(=O)Nc2ccccc2C(=O)NCc2ccccc2)cc1
2. Cc1nc2c(o1)C(=Nc1ccccc1)c1ccccc1C2=Nc1ccccc1

# output
1: > 100 µM; 2: > 100 µM

----------
Test system: RPMI-8226 leukemia
protocol-text: NCI tumour cell line growth inhibition, 48 h
quantity-measured: TGI

Observe how each entry below is paired with its result.
{"columns": ["molecule", "val"],
 "data": [
  ["CCc1ccccc1NC(=O)C1=C(C)NC(C)=C(C(=O)Nc2c(CC)cccc2CC)C1c1ccc2c(c1)OCO2 (stereo not drawn)", "41.3 µM"],
  ["C=Cc1c(C)c(O)cc2c1-c1ccc(O)c(C)c1CC2", "56.6 µM"],
  ["C=C(C)c1nc(C#N)c(N)o1", "> 100 µM"],
  ["CC1=C(Cc2ccccc2)C(Cc2ccccc2)=C(C)S1=O", "54.4 µM"],
  ["O=C(O)CNCP(=O)(O)O", "> 100 µM"],
  ["O=c1oc2c3ccc4ccccc4c3n(CCCN3CCCCC3)c2c2ccccc12", "> 100 µM"],
  ["Oc1ccc[n+](Cc2ccccc2)c1", "> 100 µM"],
  ["CC1NOC(=O)C1N=Nc1ccccc1Br (stereo not drawn)", "91.6 µM"],
  ["COc1ccc2c(c1)N=C(N)n1c(nc3ccccc31)S2", "> 100 µM"],
  ["COc1ccc(Cc2c(-c3ccc(C)cc3)n[nH]c(=O)c2C2C(=O)N(c3ccccc3)N=C2c2ccccc2)cc1 (stereo not drawn)", "80.3 µM"]
]}

For every item in the list below, what is its measured TGI?
1. O=[N+]([O-])c1cccc2nc3ccccc3c(NCCN(CCO)CCO)c12
2. COC(=O)c1c(C)c2n(c1C)C(=O)C(c1ccccc1)=C2
3. N#CC1=C(N)OC2=C(CCCc3ccccc32)C1c1ccc([N+](=O)[O-])cc1 (stereo not drawn)
4. COC(=O)Cc1c(-c2[nH]c3ccccc3c2CC(=O)OC)[nH]c2ccccc12
5. N#Cc1cnc(=O)n(C2CC(O)C(CO)O2)c1 (stereo not drawn)
6. CC(=O)Nc1c(Br)cc2c(c1Br)Cc1cc(Br)ccc1-2
7. C#CCCCCC#Cc1ccccc1C(=O)C=[N+]=[N-]

# output
["0.0971 µM", "> 100 µM", "13.1 µM", "> 100 µM", "> 100 µM", "> 100 µM", "> 100 µM"]

Provide TGI values for the following items, in order.
1. CCN(CC)c1ccc2cc3ccc(=[N+](CC)CC)cc-3oc2c1
2. CCOC(=O)C(C)c1nc2cc(N3CCOCC3)c(F)cc2[nH]c1=O (stereo not drawn)
3. COc1ccc(NC(=S)Nc2ccccc2)cc1
4. C[C@]12CC[C@H]3[C@@H](CCC4=C[C@@H](N5CCCC5)CC[C@@]43C)[C@@H]1C/C(=C\c1ccncc1)[C@@H]2O
5. CC(=O)Nc1ccccc1S(=O)(=O)c1ccccc1
6. O=C(O)C1CCC(=O)N1C(=O)C(Cl)c1ccccc1 (stereo not drawn)

# output
1. 3.16 µM
2. > 100 µM
3. > 100 µM
4. 28.5 µM
5. > 100 µM
6. > 100 µM

----------
Test system: HOP-92 NSCLC
protocol-text: NCI tumour cell line growth inhibition, 48 h
quantity-measured: GI50

Field: example entries. Status: answers known.
{"columns": ["molecule", "GI50"],
 "data": [
  ["CN1C[C@@H](c2ccc(Cl)cc2)[C@]2(NC(=S)N(c3ccc(F)c(Cl)c3)C2=O)[C@@]12C(=O)NC1C=CC(Cl)=C[C@H]12 (stereo not given in full)", "2490 nM"],
  ["O=S(=O)(Nc1ccc(Cl)c(F)c1)c1ccc(-c2cnc(C3CC3)o2)cc1", "734 nM"],
  ["CC(C)(C)C(=O)OCCNc1nc(-c2ccccc2)nc2ccccc12", "12600 nM"],
  ["CC(=O)Nc1c(Br)cc2c(c1Br)Cc1cc(Br)ccc1-2", "675 nM"]
]}

Provide each entry's GI50 from the list below.
1. CCN(Cc1ccccn1)c1ccc(CO)c(Cl)c1
2. NC(=O)c1c(Br)n(C2OC(CO)C(O)C2O)c2ncnc(N)c12 (stereo not given)
3. C=CC(C)c1cccc(C=O)c1O (stereo not given)
4. C=C1C(=O)O[C@@H]2[C@@H]3O[C@@H](C[C@@H]13)[C@](C)(O)CC/C=C(\C)CCC[C@H]2C
5. C/C(=N\[N+](C)(C)C)c1ccc(C)c(C)c1
6. O=C(NC1CCCCC1)OCc1c(COC(=O)NC2CCCCC2)c(-c2ccc(Cl)c(Cl)c2)n2c1CCC2

# output
1: 10000 nM; 2: 450 nM; 3: 4930 nM; 4: 500 nM; 5: > 100000 nM; 6: 1940 nM

----------
System: A549 NSCLC
protocol-text: NCI tumour cell line growth inhibition, 48 h
Provide the recorded GI50 for the entries that follow.

These recorded examples may help you get a feel for the data.
{"columns": ["compound", "assayed-target", "val"],
 "data": [
  ["O=C(NC1CCCCC1)OCc1c(COC(=O)NC2CCCCC2)c(-c2ccc(Cl)c(Cl)c2)n2c1CCC2", "A549 NSCLC", "7.47 µM"],
  ["COc1ccc(OC)c(/C=C/C(=O)N/N=C/c2ccccc2)c1", "A549 NSCLC", "4.29 µM"]
]}

Answer for every listed entry: what is its GI50? The entries follow.
1. COc1cccc(/C=C2\COc3ccc(O)c(O)c3C2=O)c1
2. Cc1ccc2cc3c(cc(C)c4ccccc43)c3c2c1CC3
3. CCOC(=O)CCC(NC(=O)c1ccc(Sc2nc3cc(N)cc(N)c3nc2-c2ccccc2)cc1)C(=O)OCC (stereo not given)

# output
1: 2.41 µM; 2: > 100 µM; 3: 2.9 µM

----------
Would you mind telling me the reported TGI of each entry?
Test system: MDA-MB-231 breast
protocol-text: NCI tumour cell line growth inhibition, 48 h

{"columns": ["molecule", "assayed-target", "val"],
 "data": [
  ["CCCC(=O)OCC1OC(n2cnc3c(=S)nc(N)[nH]c32)C(OC(=O)CCC)C1OC(=O)CCC (stereo unspecified)", "MDA-MB-231 breast", "> 100 µM"]
]}

Below are some molecules; for each one, tell me its TGI.
1. CC1(C)CC[C@]2(C(=O)O)CC[C@]3(C)C(=CC[C@@H]4[C@@]5(C)CC[C@H](OC6OC(C(=O)O)C(O)C(O)C6O)C(C)(C)[C@@H]5CC[C@]43C)[C@@H]2C1 (stereo partly specified)
2. NCCNC1=CC(=O)c2nc3ccccc3c3ccnc1c23
3. CCn1nc(-c2ccc(C(=O)OC)cc2)nc2c(=O)n(C)c(=O)nc1-2

# output
1. 33.5 µM
2. 41.9 µM
3. 6.33 µM
